Method: yeast display, Sf9 membrane polyspecificity reagent, FACS + sequencing; frameworks hold sequencing errors
Reported endpoint: polyreactivity (PSR sort gate)

Examples with answers:
input: Determine its reported polyreactivity (PSR sort gate): `QVQLVESGGGLVQAGGSLRLSCAASGSIFGRYAMGWYRQAPGKERELLAALTYRGGTTYYADSVKGRFTISRDNAKNTVYLQMNSLKPEDTAVYYCAAEGTWYYKYGYFAYYYWGQGTQVTVSS`
output: low polyreactivity

input: Determine its reported polyreactivity (PSR sort gate): `QVQLVESGGGLVQAGGSLRLSCAASGSTFWLYAMGWYRQAPGKERELVAAISSTGNTNYADSVKGRFTISRDNAKNTVYLQMNSLKPEDTAVYYCAADSWDYDSRMDYWGQGTQVTVSS`
output: low polyreactivity

input: Determine its reported polyreactivity (PSR sort gate): `QVQLVESGGGLVQAGGSLRLSCAASGRTLLLNTMGWYRQAPGKERELFAAISWRDGSTYYADSVKRRFTISRDNAKITVYLQMNSLIPEDTAVYYCNARLSGRSPYDLRFDYWGQGTQVTVSS`
output: low polyreactivity

input: Determine its reported polyreactivity (PSR sort gate): `QVQLVESAGGLVQAGGSLRLSCAASGSIFRAYSMGWYRQAPGKERELVAAISWGGGSTSYADSVKGRFTISRDNAKNTVYLQMNSLQPEDTAVYYCNKVSFSKRRDYYWGQGTQVTVSS`
output: high polyreactivity

input: Determine its reported polyreactivity (PSR sort gate): `HVQLVESGGGLVQAGGSLRLSCAASGFTSYLYTMGWYRQAPGKERELVAAISNSGGNTYYADSVKGRFTISRDNAKNTVYLQMNSLKPEDTAVYYCAARLFAAKYRYGYWGQGTQVTVSS`
output: high polyreactivity

***
input: Determine its reported polyreactivity (PSR sort gate): `QVQLVESGGGLVQAGGSLRLSGAASGRTFPYNTMGWYRQAPGKEWELVASITYTDGSTSYAYSVKGRFTISRDNAKNTVYLQMNCLKPEDTAVYYCAADYYAHQDYRFDYCGQGTQVTVSS`
output: low polyreactivity

input: Determine its reported polyreactivity (PSR sort gate): `QVQLVESGGGLVQAGGSLRLSCAASGIIFYDYAMGWYRQAPGKERELVAAITSNGDNTYYADSVKGRFTISRDNAKNTVYLQMNSLKPEDTAVYYCAVDGSFAADFDNYLEEYGYWGQGTQVSVSS`
output: low polyreactivity

input: Determine its reported polyreactivity (PSR sort gate): `QVQLVESGGGLVQAGGRLRLSCAASGNTFGPYDMGWYRQAPGKERELVAGITSGGSTYYADSVKGRFTISRDNAKITVYLQMNSLKPEDTAVYYCAADYFLWVYWYDYWGQGTQVTVSS`
output: high polyreactivity

input: Determine its reported polyreactivity (PSR sort gate): `QVQLVESGGGLVQAGGSLRLSCAASGSIFTFYAMGWYIQAPGKERELVAAISSGGDTYYADSVKGRFTISRDNAKNTVYLQKNILKPEDTAVYYCAADWRGSYLYGYYYWGQGTQVTVSS`
output: low polyreactivity

input: Determine its reported polyreactivity (PSR sort gate): `QVQLVESGGGLVQAGGSLRLSCAASGFIFYYYAMGWYRPAPGKERELVAAISGSGGSTYYADSVKGRFTISRDNAKNTGYLQMNSMNPEDTAVYYCAAVQAAGSHAYDYWGQGTQVTVSS`
output: high polyreactivity

input: Determine its reported polyreactivity (PSR sort gate): `QVQLVETGGGLVQAGGSLRLSCAASGSIFTPYAIGWYRKAPGKDRELVAAITSRGGTTYYADSVKGRFTISRDNAKNTVYLQMNSLKPEDTAVYYCAAEYYHLYYYQFDYWGQGTQVTVSS`
output: high polyreactivity

###

Method: yeast display, Sf9 membrane polyspecificity reagent, FACS + sequencing; frameworks hold sequencing errors
Reported endpoint: polyreactivity (PSR sort gate)

Examples with answers:
input: Determine its reported polyreactivity (PSR sort gate): `QVQLVDSGGGLVQAGGSLRLSCAASGRTISKYAMGWNRQAPVKERELVAAITGSGGSTHYADSVKGRFTISRDNAKNTVYLQMNSLKPEDSAVYYCAAVPRYQYGYWGQGTQVTVSS`
output: low polyreactivity

input: Determine its reported polyreactivity (PSR sort gate): `QVQLVESAGGLVQARGSLRLSCAASGRIFVPYAMGWYRQAPGKERELVAVISRGGSTYYADSVKGRFTISRDNAKNTVYLQMNSLKPEDTAVYYCAVASKLALQPWYDYWGQGTQVTVSS`
output: high polyreactivity

input: Determine its reported polyreactivity (PSR sort gate): `QVQLVESGGGLVQAGGSLRLSCAASGSISPQNVMGWYRQAPGKERELVAAITGGGYTNYADSVKGRFTISRDNAKKTVYLQMNSLKPEDTAVYYCNADYFQDRLDYWGQGTQVTVSS`
output: low polyreactivity

input: Determine its reported polyreactivity (PSR sort gate): `QVQLVESVGGLVQAGGSLRLSCAASGFTFRRYAMGWYRQAPGKERELVAAISYSGGITYYADSVKGRFTISRDNAKNTVYLQMNSLKPEDTAVYYCAADYFAPYKTYEYWGQGTQVTVSS`
output: high polyreactivity

input: Determine its reported polyreactivity (PSR sort gate): `QVQLVESGGGLVQAGGSLRLSCAASGGTFAGYAMGWYRQAPGKERELVAAISRSGGSTYYADSVKGRFTISRDNAKNTVYLQMNSLKPEDTAVYYCIAASRTKFDYWGQGTQVTVSS`
output: high polyreactivity

input: Determine its reported polyreactivity (PSR sort gate): `QVQLVESGGGLVQAGGSLRLSCAASGFIFLLYAMGWYRQAPGKERELVAAIDTDTSTNYADSVKGRFTISRDNAKNTVYLQMNSLKPEDTAVYYCAREEPGVSLGVDYDYWGQGTQVTVSS`
output: low polyreactivity

Then there is this sequence:
input: Determine its reported polyreactivity (PSR sort gate): `QVQLVESGGGLVQAGGSLRLSCAASGSTFKQYTMGWYRQAPGKERELVAAISWSGTSTYYADSVKGRFTISRDNAKNTVYLLMNSLKAEDTAVYYCAAVSYVWQYYYWGQGTQVTVSS`
output: high polyreactivity

###

Method: yeast display, Sf9 membrane polyspecificity reagent, FACS + sequencing; frameworks hold sequencing errors
Reported endpoint: polyreactivity (PSR sort gate)

Examples with answers:
input: Determine its reported polyreactivity (PSR sort gate): `QVQLVESGGGLDQAGGSLRLSCAASGRTFGYYTMGWYRQAPWKERELVARINYIGSSTYYADSVKGRFTISRDNAKNTVYLQLNSLKREDTAVYYCNADTARGRSGVRRYYWGQGTQVTVSS`
output: high polyreactivity

input: Determine its reported polyreactivity (PSR sort gate): `QVQLVESGGGLVQAGGSLRLSCAASGRIFVASAMGWYRQAPGKERELVAAISKTGGSTYYADSVKGRFTISRDNAKKTVYLQMNSLKPEDTAVYYCAADVYRRFDYWGQGTQVTVSS`
output: low polyreactivity

input: Determine its reported polyreactivity (PSR sort gate): `QVQLVESGGGLVQAGGSLRLSCAASGRIFAGYAMGWYRQAPGKERELVATITRGGSTNYADSVKRPFTISRDNAKNTVYLQMNSLKPDDTAVYYCNADIRRHGGYAHEYWGQGTQVTVSS`
output: low polyreactivity

input: Determine its reported polyreactivity (PSR sort gate): `QVQLVESGGGLVQAGGSLRLSCAASGRTFSRYAMGWYRQAPGKERELVAAISKSSGTTSYADSVKGRFTISRDNAKNTVYLQMKSQKPEDTAVYYCAAGITGRYYGVRFSEDYWGQGTQVTVSS`
output: high polyreactivity

Then there is this sequence:
input: Determine its reported polyreactivity (PSR sort gate): `QVQLVESGGGLVQAGGSLRLSCAASGFTFSVNDMGWYRQAPGKERELVAGISRGDNTNYADSVKGRFTISRDNAKNTVYLQMNSLKPEDTAVYYCAADFSLGLYRSWFGDYDYWGQGTQVTVSS`
output: low polyreactivity

###

Method: yeast display, Sf9 membrane polyspecificity reagent, FACS + sequencing; frameworks hold sequencing errors
Reported endpoint: polyreactivity (PSR sort gate)

input: Determine its reported polyreactivity (PSR sort gate): `QVQLVESGGGLVQAGGSLRLSCAASGFILRGYDMGWYRQATGKERELVATITTGGSTYYADSVKGRFTISRDNAKNTVYLQMNSLKPEDTAVYYCAGRRRGSVGVGYANPYNYWGQGTQVTVSS`
output: high polyreactivity

input: Determine its reported polyreactivity (PSR sort gate): `QVQLVESGGGLVQAGGSLRLSCAASGSIFRQYAMGWYRQAPPKDRELVAAISSVGRTYYADSVKGRFTISRDNAKNTVYLQMNSLKPEDTAVYYCAARPYKFARYDYWGQGTQVTVSS`
output: high polyreactivity

input: Determine its reported polyreactivity (PSR sort gate): `QVQLVESGGGLVQAGGSLRLSCAASGSISYRYDMGWYRQAPGKERELVATIRSGGSTNYADSVKGRFTISRDNAKNTVYLQMNSMIPEDTAVYYCAARLYARKILHFSADSDYWGQGTQVTVSS`
output: low polyreactivity

input: Determine its reported polyreactivity (PSR sort gate): `QVQLVESGVGLVQARGSLRLSCAASGYIFTIYAMGWYRHAPGKERELVAAITWSGATTYYADSVKGRFTISRDNAKNTVYLQMNILKPEDTAVYYCNADYWHYYEDYDSWGQGTQVTVSS`
output: low polyreactivity

Then there is this sequence:
input: Determine its reported polyreactivity (PSR sort gate): `QFQLVESGGGFVQAGGSLRLSCAASGSIFLYNDMGWYRQAPGKDRELLPAITSDGSTNYADSVKGRFTISRDNAKNTVYLQMNSLKPEDTAVYYCAADALWFYLNWYYGGTAYGYWGQGTQVTVSS`
output: low polyreactivity
